These data points were gathered from ChEMBL document CHEMBL4270599.

Test system: COLO 205
Test: Cytotoxicity against human COLO205 cells after 48 hrs by SRB assay
Format: functional
Details: COLO 205, 48 h, read-out: TGI
Observable: TGI

Mol: C#C[C@@]1(O)[C@@H](CO)O[C@@H](n2cc(I)c3c(N)ncnc32)[C@@H]1O
Measurement Target: COLO 205
Observable: TGI
Reported: 393 to 1270 nM
//
Mol: C#C[C@@]1(O)[C@@H](CO)O[C@@H](n2cc(Cl)c3c(N)ncnc32)[C@@H]1O
Measurement Target: COLO 205
Observable: TGI
Reported: 276 to 521 nM
//
Mol: C#C[C@@]1(O)[C@@H](CO)O[C@@H](n2cc(Br)c3c(N)ncnc32)[C@@H]1O
Measurement Target: COLO 205
Observable: TGI
Reported: 235 to 903 nM

###

Test system: PC-3
Assay: Growth inhibition of human PC3 cells assessed as cell growth at 10^-6 M incubated for 48 hrs by sulforhodamine B assay relative to control
Format: functional
Conditions: PC-3, 48 h, read-out: Activity

Mol: C#C[C@@]1(O)[C@@H](CO)O[C@@H](n2cc(Cl)c3c(N)ncnc32)[C@@H]1O
Measurement Target: PC-3
growth at 1 µM: 9 to 11%
--
Mol: C#C[C@@]1(O)[C@@H](CO)O[C@@H](n2cc(Br)c3c(N)ncnc32)[C@@H]1O
Measurement Target: PC-3
growth at 1 µM: 8 to 12%
--
Mol: C#C[C@@]1(O)[C@@H](CO)O[C@@H](n2cc(I)c3c(N)ncnc32)[C@@H]1O
Measurement Target: PC-3
growth at 1 µM: 13 to 14%

###

Tested on: OVCAR-3
Assay: Growth inhibition of human OVCAR3 cells assessed as cell growth at 10^-8 M incubated for 48 hrs by sulforhodamine B assay relative to control
Format: functional
Settings: OVCAR-3, 48 h, read-out: Activity
Observable: growth at 0.01 µM

Mol: C#C[C@@]1(O)[C@@H](CO)O[C@@H](n2cc(I)c3c(N)ncnc32)[C@@H]1O
Reported: 91 to 98%

Mol: C#C[C@@]1(O)[C@@H](CO)O[C@@H](n2cc(Br)c3c(N)ncnc32)[C@@H]1O
Reported: 99 to 101%

Mol: C#C[C@@]1(O)[C@@H](CO)O[C@@H](n2cc(Cl)c3c(N)ncnc32)[C@@H]1O
Reported: 97 to 101%

###

Test system: NCI-H322M
Assay: Growth inhibition of human NCI-H322M cells assessed as cell growth at 10^-6 M incubated for 48 hrs by sulforhodamine B assay relative to control
Assay type: functional
Details: read-out: Activity
Observable: growth at 1 µM

Mol: C#C[C@@]1(O)[C@@H](CO)O[C@@H](n2cc(I)c3c(N)ncnc32)[C@@H]1O
Observable: growth at 1 µM
Reported: 37 to 44%

Mol: C#C[C@@]1(O)[C@@H](CO)O[C@@H](n2cc(Cl)c3c(N)ncnc32)[C@@H]1O
Observable: growth at 1 µM
Reported: 13 to 23%

Mol: C#C[C@@]1(O)[C@@H](CO)O[C@@H](n2cc(Br)c3c(N)ncnc32)[C@@H]1O
Observable: growth at 1 µM
Reported: 26 to 33%

###

Measured growth at 0.01 µM accompanies every entry in the list below.
Tested on: NCI-H460
Test: Growth inhibition of human NCI-H460 cells assessed as cell growth at 10^-8 M incubated for 48 hrs by sulforhodamine B assay relative to control
Type: functional
Conditions: NCI-H460, 48 h, read-out: Activity
Observable: growth at 0.01 µM

Mol: C#C[C@@]1(O)[C@@H](CO)O[C@@H](n2cc(Cl)c3c(N)ncnc32)[C@@H]1O
Reported: 45 to 96%

Mol: C#C[C@@]1(O)[C@@H](CO)O[C@@H](n2cc(Br)c3c(N)ncnc32)[C@@H]1O
Reported: 63 to 104%

Mol: C#C[C@@]1(O)[C@@H](CO)O[C@@H](n2cc(I)c3c(N)ncnc32)[C@@H]1O
Reported: 91 to 92%

###

System: HOP-62
Test: Growth inhibition of human HOP62 cells assessed as cell growth at 10^-6 M incubated for 48 hrs by sulforhodamine B assay relative to control
Format: functional
Conditions: HOP-62, 48 h, read-out: Activity
Below, each entry is listed alongside its reported growth at 1 µM.

Mol: C#C[C@@]1(O)[C@@H](CO)O[C@@H](n2cc(Br)c3c(N)ncnc32)[C@@H]1O
Measurement Target: HOP-62
growth at 1 µM: 12 to 29%
//
Mol: C#C[C@@]1(O)[C@@H](CO)O[C@@H](n2cc(I)c3c(N)ncnc32)[C@@H]1O
Measurement Target: HOP-62
growth at 1 µM: 33 to 61%
//
Mol: C#C[C@@]1(O)[C@@H](CO)O[C@@H](n2cc(Cl)c3c(N)ncnc32)[C@@H]1O
Measurement Target: HOP-62
growth at 1 µM: 2 to 10%

###

Test system: HCC 2998
Test: Cytotoxicity against human HCC2998 cells after 48 hrs by SRB assay
Format: functional
Conditions: HCC 2998, 48 h, read-out: TGI
As shown below, each of these molecules has a reported TGI value.
Observable: TGI

Mol: C#C[C@@]1(O)[C@@H](CO)O[C@@H](n2cc(I)c3c(N)ncnc32)[C@@H]1O
Observable: TGI
Reported: 2.6 to 3.47 µM
--
Mol: C#C[C@@]1(O)[C@@H](CO)O[C@@H](n2cc(Br)c3c(N)ncnc32)[C@@H]1O
Observable: TGI
Reported: 0.525 to 1.25 µM
--
Mol: C#C[C@@]1(O)[C@@H](CO)O[C@@H](n2cc(Cl)c3c(N)ncnc32)[C@@H]1O
Observable: TGI
Reported: 0.501 to 0.565 µM

###

Tested on: Malme-3M
Assay: Growth inhibition of human MALME-3M cells assessed as cell growth at 10^-7 M incubated for 48 hrs by sulforhodamine B assay relative to control
Format: functional
Settings: read-out: Activity

Mol: C#C[C@@]1(O)[C@@H](CO)O[C@@H](n2cc(Br)c3c(N)ncnc32)[C@@H]1O
growth at 0.1 µM: 77 to 79%

Mol: C#C[C@@]1(O)[C@@H](CO)O[C@@H](n2cc(I)c3c(N)ncnc32)[C@@H]1O
growth at 0.1 µM: 78 to 99%

Mol: C#C[C@@]1(O)[C@@H](CO)O[C@@H](n2cc(Cl)c3c(N)ncnc32)[C@@H]1O
growth at 0.1 µM: 79 to 80%

###

Test system: UO-31
Experiment: Growth inhibition of human UO31 cells assessed as cell growth at 10^-7 M incubated for 48 hrs by sulforhodamine B assay relative to control
Assay type: functional
Conditions: UO-31, 48 h, read-out: Activity
Form field: growth at 0.1 µM (one value per entry).
Observable: growth at 0.1 µM

Mol: C#C[C@@]1(O)[C@@H](CO)O[C@@H](n2cc(Br)c3c(N)ncnc32)[C@@H]1O
Reported: 55 to 57%
//
Mol: C#C[C@@]1(O)[C@@H](CO)O[C@@H](n2cc(I)c3c(N)ncnc32)[C@@H]1O
Reported: 46 to 50%
//
Mol: C#C[C@@]1(O)[C@@H](CO)O[C@@H](n2cc(Cl)c3c(N)ncnc32)[C@@H]1O
Reported: 61 to 69%

###

Test system: A498
Experiment: Growth inhibition of human A498 cells assessed as cell growth at 10^-7 M incubated for 48 hrs by sulforhodamine B assay relative to control
Type: functional
Details: A498, 48 h, read-out: Activity

Mol: C#C[C@@]1(O)[C@@H](CO)O[C@@H](n2cc(Cl)c3c(N)ncnc32)[C@@H]1O
growth at 0.1 µM: 105 to 111%

Mol: C#C[C@@]1(O)[C@@H](CO)O[C@@H](n2cc(I)c3c(N)ncnc32)[C@@H]1O
growth at 0.1 µM: 74 to 89%

Mol: C#C[C@@]1(O)[C@@H](CO)O[C@@H](n2cc(Br)c3c(N)ncnc32)[C@@H]1O
growth at 0.1 µM: 88 to 98%

###

Tested on: SK-MEL-2
Assay: Growth inhibition of human SK-MEL-2 cells assessed as cell growth at 10^-8 M incubated for 48 hrs by sulforhodamine B assay relative to control
Format: functional
Settings: SK-MEL-2, 48 h, read-out: Activity
Observable: growth at 0.01 µM

Mol: C#C[C@@]1(O)[C@@H](CO)O[C@@H](n2cc(Cl)c3c(N)ncnc32)[C@@H]1O
Reported: 86 to 95%
--
Mol: C#C[C@@]1(O)[C@@H](CO)O[C@@H](n2cc(I)c3c(N)ncnc32)[C@@H]1O
Reported: 84 to 101%
--
Mol: C#C[C@@]1(O)[C@@H](CO)O[C@@H](n2cc(Br)c3c(N)ncnc32)[C@@H]1O
Reported: 96 to 106%

###

# key: entry, value: growth at 0.1 µM
System: SF-539
Test: Growth inhibition of human SF539 cells assessed as cell growth at 10^-7 M incubated for 48 hrs by sulforhodamine B assay relative to control
Type: functional
Settings: SF-539, 48 h, read-out: Activity

Mol: C#C[C@@]1(O)[C@@H](CO)O[C@@H](n2cc(I)c3c(N)ncnc32)[C@@H]1O
growth at 0.1 µM: 75 to 82%
//
Mol: C#C[C@@]1(O)[C@@H](CO)O[C@@H](n2cc(Cl)c3c(N)ncnc32)[C@@H]1O
growth at 0.1 µM: 90 to 98%
//
Mol: C#C[C@@]1(O)[C@@H](CO)O[C@@H](n2cc(Br)c3c(N)ncnc32)[C@@H]1O
growth at 0.1 µM: 79 to 91%
